Biological target: Platelet-derived growth factor receptor beta (Mus musculus)
Sequence (P05622 whole entry): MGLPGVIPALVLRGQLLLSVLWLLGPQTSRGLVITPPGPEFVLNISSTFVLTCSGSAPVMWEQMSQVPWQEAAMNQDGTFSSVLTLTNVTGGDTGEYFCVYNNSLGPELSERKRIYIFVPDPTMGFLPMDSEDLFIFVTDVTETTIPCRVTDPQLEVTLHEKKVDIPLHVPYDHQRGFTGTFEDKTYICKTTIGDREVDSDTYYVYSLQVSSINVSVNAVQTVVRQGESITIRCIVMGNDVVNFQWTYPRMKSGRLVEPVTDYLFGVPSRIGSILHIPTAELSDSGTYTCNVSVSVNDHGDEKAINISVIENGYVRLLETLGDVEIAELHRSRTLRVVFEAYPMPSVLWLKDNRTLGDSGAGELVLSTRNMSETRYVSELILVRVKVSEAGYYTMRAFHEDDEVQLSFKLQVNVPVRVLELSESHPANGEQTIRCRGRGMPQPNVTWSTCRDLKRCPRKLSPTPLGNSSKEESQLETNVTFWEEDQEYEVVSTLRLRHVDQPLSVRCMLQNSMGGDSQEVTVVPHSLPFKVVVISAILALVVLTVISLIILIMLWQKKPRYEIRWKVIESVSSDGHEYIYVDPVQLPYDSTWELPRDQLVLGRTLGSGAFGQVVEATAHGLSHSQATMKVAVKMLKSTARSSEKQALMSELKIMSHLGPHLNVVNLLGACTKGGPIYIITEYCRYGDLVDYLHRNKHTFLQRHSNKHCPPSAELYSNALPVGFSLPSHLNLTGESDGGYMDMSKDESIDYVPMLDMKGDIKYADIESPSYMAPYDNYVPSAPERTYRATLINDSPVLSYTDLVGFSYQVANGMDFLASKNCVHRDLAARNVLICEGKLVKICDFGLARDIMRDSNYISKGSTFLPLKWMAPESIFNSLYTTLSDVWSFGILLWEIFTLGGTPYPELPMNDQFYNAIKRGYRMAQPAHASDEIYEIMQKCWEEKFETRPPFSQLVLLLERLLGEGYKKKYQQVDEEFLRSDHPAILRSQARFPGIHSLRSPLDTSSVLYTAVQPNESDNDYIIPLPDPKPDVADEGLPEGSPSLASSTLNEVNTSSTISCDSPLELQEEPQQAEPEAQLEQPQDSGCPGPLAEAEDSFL
Assay: Ability to prevent phosphorylation of isolated mouse PDGF receptor beta
testReadout: log10(IC50) (log10 of the value in µM)
# values: log10(IC50), units µM

Item under review: `CN1CCN(CCCCNc2ncc3cc(-c4c(Cl)cccc4Cl)c(NC(=O)NC(C)(C)C)nc3n2)CC1` . Reported log10(IC50)?
-0.55

Item under review: `COc1ccccc1NC(=O)Nc1nc2nc(NCCCN3CCN(C)CC3)ncc2cc1-c1c(Cl)cccc1Cl` . Reported log10(IC50)?
-0.18

Item under review: `CCNC(=S)Nc1nc2nc(NCCCN(CC)CC)ncc2cc1-c1c(Cl)cccc1Cl` . Reported log10(IC50)?
0.70

Item under review: `CCNC(=O)Nc1nc2nc(NCCN(CC)CC)ncc2cc1-c1c(Cl)cccc1Cl` . Reported log10(IC50)?
1.08

Item under review: `CN1CCN(CCCNc2ncc3cc(-c4c(Cl)cccc4Cl)c(NC(N)=O)nc3n2)CC1` . Reported log10(IC50)?
0.38

Origin of values: ChEMBL document CHEMBL1134497
